Data origin: patent EP4591887A1

SYSTEM: T1, human GPC3 (Glypican-3) (human, UniProt P51654 25-580)
T1 construct: whole, on cells; the cell line is named under assay or readout
METHOD NOTES: FACS on HepG2 cells
For each record, write down the corresponding pEC50.
Here pEC50 is given on a logarithmic scale as minus log10 of the concentration in mol/L.

response.value for Hu 52H5D3B8-7/8 CDRs with Y035 FRs (antibody, V domains shown) VH: EVQLVQSGAEVKKPGASVKVSCKASGYTHSDYEMHWVRQAPGQGLEWMGAIHPGSGGTAYNQKFKGRVTITADKSTSTAYMELSSLRSEDTAVYYCARFYSYAYWGQGTLVTVSA VL: DIVMTQTPLSLPVTPGEPASISCRSSQSLVHSNGNTYLQWYLQKPGQSPQLLIYKVSNRFSGVPDRFSGSGSGTDFTLKISRVEAEDVGVYYCSQSIHVPYTFGQGTKLEIKR (field: pEC50) = 9.11

response.value for Hu 52H5D3B8-8 (antibody, human IgG1, kappa, V domains shown, also called humanized GPC3 antibody Hu 52H5D3B8-8) VH: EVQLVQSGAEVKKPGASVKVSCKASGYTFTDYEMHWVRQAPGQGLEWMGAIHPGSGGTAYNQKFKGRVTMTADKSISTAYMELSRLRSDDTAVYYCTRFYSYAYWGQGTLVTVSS VL: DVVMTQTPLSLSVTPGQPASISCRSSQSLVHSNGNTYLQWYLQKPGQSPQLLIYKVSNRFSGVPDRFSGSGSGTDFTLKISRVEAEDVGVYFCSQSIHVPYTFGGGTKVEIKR (field: pEC50) = 9.45

response.value for GC33 antibody (Chugai Pharmaceutical) (antibody, V domains shown, Control antibody, prepared as in US 7919086 B2; Whole antibody; Detected with anti-human IgG) VH: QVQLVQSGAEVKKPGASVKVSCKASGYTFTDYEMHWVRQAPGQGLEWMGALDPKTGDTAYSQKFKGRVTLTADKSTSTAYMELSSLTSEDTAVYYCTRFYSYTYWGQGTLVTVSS VL: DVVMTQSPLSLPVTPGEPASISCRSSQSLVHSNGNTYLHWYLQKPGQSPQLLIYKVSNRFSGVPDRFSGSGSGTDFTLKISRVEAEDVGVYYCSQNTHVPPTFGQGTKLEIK (field: pEC50) = 9.13
